Reported Inhibition values are given for each entry in this list.
Test system: Escherichia coli
Conditions: Concentration 32 ug.mL-1; ASSAY_TEST Inhibition of Bacterial Growth; detection method Absorption (OD600); MEDIA CAMHB; plate type 384well; NBS; CORNING #3640; time 18 hr
Description: Antibacterial activity against Escherichia coli ATCC 25922 (CO-ADD:GN_001); MIC in CAMBH media using NBS plates, by OD(600)
Results with a measured potency or affinity are listed apart.
Report the value in % with no unit label.

Cn1cc(NC(=O)c2cc(NC(=O)CCC(=O)O)cn2C)cc1C(=O)NCCN1CCOCC1.O=C(O)C(F)(F)F | -3.43
CC(C)c1sc(N)nc1C(=O)Nc1cc(C(=O)Nc2cc(C(=O)NCCN3CCOCC3)n(C)c2)n(C)c1.O=C(O)C(F)(F)F | -18.06

# get_value(readout='Inhibition', item= `Cc1ncc(CNc2ccc(C(C)(C)C)cc2)c(N)n1` )
-7.27

# get_value(readout='Inhibition', item= `Cc1ncc(Cn2cc(CCC(=O)O)nn2)c(N)n1.O=C(O)C(F)(F)F` )
-17.36

# get_value(readout='Inhibition', item= `CC(=N)Nc1cc(C(=O)Nc2cc(C(=O)Nc3cc(C(=O)NCCN4CCOCC4)n(C)c3)n(C)c2)n(C)c1.O=C(O)C(F)(F)F.O=C(O)C(F)(F)F` )
-8.61

# get_value(readout='Inhibition', item= `CC(=O)Nc1cc(C(=O)Nc2cc(C(=O)Nc3cc(C(=O)NCCCN(C)C)n(C)c3)n(C)c2)n(C)c1.O=C(O)C(F)(F)F` )
-5.37

# get_value(readout='Inhibition', item= `COC(=O)c1ccc(C(=O)Nc2cc(C(=O)Nc3cc(C(=O)NCCC(=N)N)n(C)c3)n(C)c2)cc1.O=C(O)C(F)(F)F` )
-18.97

# get_value(readout='Inhibition', item= `CCOC(=O)c1cc(NC(=O)c2cc(NC(=O)c3sc(N)nc3C(F)(F)F)cn2C)cn1C` )
-5.76

###

Reported Inhibition values are given for each entry in this list.
Test system: Staphylococcus aureus
Conditions: Concentration 32 ug.mL-1; ASSAY_TEST Inhibition of Bacterial Growth; detection method Absorption (OD600); MEDIA CAMHB; plate type 384well; NBS; CORNING #3640; time 18 hr
Description: Antibacterial activity against Staphylococcus aureus MRSA ATCC 43300 (CO-ADD:GP_020); MIC in CAMBH media, using NBS plates, by OD(600)
Measured potencies and affinities stand elsewhere.
Report the value in % with no unit label.

CCOC(=O)CCC(NC(=O)c1ccc(NCc2cn(Cc3cnc(C)nc3N)nn2)cc1)C(=O)OCC (centres undefined) | -1.1

# get_value(readout='Inhibition', item= `COC(=O)c1ccc(C(=O)Nc2cc(C(=O)Nc3cc(C(=O)NCCCN(C)C)n(C)c3)n(C)c2)cc1.O=C(O)C(F)(F)F` )
-1.58

# get_value(readout='Inhibition', item= `Cc1ncc(Cn2cc(CCO)nn2)c(N)n1` )
21.55

# get_value(readout='Inhibition', item= `COc1ccc(CC(=O)Nc2cc(C(=O)Nc3cc(C(=O)Nc4cn(CCCN(C)C)cn4)n(C)c3)n(C)c2)cc1.O=C(O)C(F)(F)F` )
6.27

###

Test system: Escherichia coli
Details: Concentration 32 ug.mL-1; ASSAY_TEST Inhibition of Bacterial Growth; detection method Absorption (OD600); MEDIA CAMHB; plate type 384well; NBS; CORNING #3640; time 18 hr
Results with a measured potency or affinity are listed apart.
Reported Inhibition values are given for each entry in this list.
Give me the value, and tack the unit on after it.

Check out these entries, answers already filled in.
COc1ccc(CC(=O)Nc2cc(C(=O)Nc3cc(C(=O)Nc4cn(CCCN(C)C)cn4)n(C)c3)n(C)c2)cc1.O=C(O)C(F)(F)F | -5.32%
Cc1ncc(CNc2cccc(F)c2)c(N)n1 | 3.54%
COc1cccc(C(=N)Nc2cc(C(=O)Nc3cc(C(=O)Nc4cn(CCCN(C)C)cn4)n(C)c3)n(C)c2)c1.O=C(O)C(F)(F)F.O=C(O)C(F)(F)F | -11.88%

Now consider the entry below.
# get_value(readout='Inhibition', item= `COC(=O)CCC(=O)Nc1cc(C(=O)Nc2cc(C(=O)NCCN3CCOCC3)n(C)c2)n(C)c1.O=C(O)C(F)(F)F` )
-5.38%
